These data points were gathered from ChEMBL document CHEMBL5252511.

method: Permeability of compound at pH 7.4 by PAMPA assay
Type: ADME
experimental_parameters: read-out: permeability
assay_readout: Papp (×10⁻⁶ cm/s)

[a] O=C(Nc1cnccc1-c1ccccc1)c1ccnc(NC(=O)C2CC2)c1
[b] O=C(Nc1cnccc1-c1ccc(Cl)cc1)c1ccnc(NC(=O)C2CC2)c1
Which has the higher Papp, a or b ? Output the label that corresponds to your choice.
b
(b: 126 ×10⁻⁶ cm/s, a: 48.3 ×10⁻⁶ cm/s)

====

method: Permeability across apical to basolateral side in human Caco2 cells
Type: ADME, cell-based
experimental_parameters: Caco-2, read-out: permeability
assay_readout: Papp A→B (×10⁻⁶ cm/s)

smiles_record=O=C(Nc1cnccc1-c1ccc(Cl)cc1)c1ccnc(NC(=O)C2CC2)c1 assay_readout="Papp A→B" experimental_result=35.4
smiles_record=O=C(Nc1cnccc1-c1ccccc1)c1ccnc(NC(=O)C2CC2)c1 assay_readout="Papp A→B" experimental_result=31.9
